# Test system: Monocotyledonous and dicotyledonous test plants
# PROTOCOL DETAILS: Post-emergence herbicidal action, greenhouse pot test, sprayed at the 2- to 3-leaf stage, 9-level rating after 2 to 3 weeks
# Assay type: in vivo
# EXPERIMENTAL SETUP: Echino., 250 g/ha, rated after 2 to 3 weeks, 9-level scale
Form field: Post-emergence action rating, Echino. (one value per entry).
RECORDED METRIC: Post-emergence action rating, Echino.

1. O=C(C1=C(O)C2CCC(C2)C1=O)c1ccc(C(F)(F)F)nc1COCC(F)(F)F (centres unmarked)
2
2. COCCOCc1nc(C(F)(F)F)ccc1C(=O)C1=C(O)CCC2(CC2)C1=O
2
3. CCOCCOCc1nc(C(F)(F)F)ccc1C(=O)c1cnn(C)c1OS(C)(=O)=O
4
4. COCCOCCOCc1nc(C(F)(F)F)ccc1C(=O)C1=C(O)C2CCC(C2)C1=O (centres unmarked)
2
5. O=C(C1=C(O)C2CCC(C2)C1=O)c1ccc(C(F)(F)F)nc1COC1COCOC1 (centres unmarked)
4
6. O=C(C1=C(O)C2CCC(C2)C1=O)c1ccc(C(F)(F)F)nc1COCCCOCc1ccccc1 (centres unmarked)
3
7. O=C(C1=C(O)C2CCC(C2)C1=O)c1ccc(C(F)(F)F)nc1COCC1CC1 (centres unmarked)
2
8. O=C(C1=C(O)C2CCC(C2)C1=O)c1ccc(C(F)(F)F)nc1COCCOCc1ccccc1 (centres unmarked)
2

====

# Tested on: Monocotyledonous and dicotyledonous test plants
# PROTOCOL DETAILS: Post-emergence herbicidal action, greenhouse pot test, sprayed at the 2- to 3-leaf stage, 9-level rating after 2 to 3 weeks
# Format: in vivo
# EXPERIMENTAL SETUP: Amaranth, 250 g/ha, rated after 2 to 3 weeks, 9-level scale
RECORDED METRIC: Post-emergence action rating, Amaranth

1) COCCOCc1nc(C(F)(F)F)ccc1C(=O)C1=C(O)C(C)(C)C(=O)C(C)(C)C1=O
1
2) O=C(C1=C(O)C2CCC(C2)C1=O)c1ccc(C(F)(F)F)nc1COCCCOCc1ccccc1 (stereo not drawn)
2
3) O=C(C1=C(O)C2CCC(C2)C1=O)c1ccc(C(F)(F)F)nc1COCc1ccccc1 (stereo not drawn)
2
4) CCOCCOCc1nc(C(F)(F)F)ccc1C(=O)c1cnn(C)c1O
2
5) CSc1nnc(SCc2nc(C(F)(F)F)ccc2C(=O)C2=C(O)CCCC2=O)s1
2
6) COCCOCc1nc(C(F)(F)F)ccc1C(=O)c1c(C)nn(C)c1O
1
7) CCN(CC)CC.O=C(C1=C(O)C2CCC(C2)C1=O)c1ccc(C(F)(F)F)nc1COC1CCCO1 (stereo not drawn) [A837-B52 (Et3NH+)]
2
8) CC#CCOCc1nc(C(F)(F)F)ccc1C(=O)C1=C(O)C2CCC(C2)C1=O (stereo not drawn)
2
9) O=C(C1=C(O)C2CCC(C2)C1=O)c1ccc(C(F)(F)F)nc1COCC1COCO1 (stereo not drawn)
3

====

Form field: Post-emergence action rating, Echino. (one value per entry).
# Tested on: Monocotyledonous and dicotyledonous test plants
# PROTOCOL DETAILS: Post-emergence herbicidal action, greenhouse pot test, sprayed at the 2- to 3-leaf stage, 9-level rating after 2 to 3 weeks
# Type: in vivo
# EXPERIMENTAL SETUP: Echino., 250 g/ha, rated after 2 to 3 weeks, 9-level scale
RECORDED METRIC: Post-emergence action rating, Echino.

1) C[S+]([O-])CCOCc1nc(C(F)(F)F)ccc1C(=O)C1=C(O)C2CCC(C2)C1=O (stereo not drawn)
3
2) CC(=O)OCCOCc1nc(C(F)(F)F)ccc1C(=O)C1=C(O)C2CCC(C2)C1=O (stereo not drawn)
5
3) COCCOCc1nc(C(F)(F)F)ccc1C(=O)C1=C(O)C(C)(C)CC(C)C1=O (stereo not drawn)
2
4) C=CCOCCOCc1nc(C(F)(F)F)ccc1C(=O)C1=C(O)C2CCC(C2)C1=O (stereo not drawn)
4
5) O=C(C1=C(O)C2CCC(C2)C1=O)c1ccc(C(F)(F)F)nc1COCCCl (stereo not drawn)
2
6) CCOC(=O)C1(C)CCC(=O)C(C(=O)c2ccc(C(F)(F)F)nc2COCCOC)=C1O (stereo not drawn)
3
7) COCCOCc1nc(C(F)(F)Cl)ccc1C(=O)C1=C(O)C2CCC(C2)C1=O (stereo not drawn)
2
8) COCCOCc1nc(C(F)(F)F)ccc1C(=O)C1=C(O)CC(C)CC1=O (stereo not drawn)
3
9) COCCOCc1nc(C(F)(F)F)ccc1C(=O)c1cnn(C)c1O
2

====

# System: Monocotyledonous and dicotyledonous test plants
# PROTOCOL DETAILS: Herbicidal action before emergence of the plants (pre-emergence action), greenhouse pot test, 9-level rating after 4 weeks
# Type: in vivo
# EXPERIMENTAL SETUP: Panicum, 250 g/ha, rated after 4 weeks, 9-level scale
Form field: Pre-emergence action rating, Panicum (one value per entry).
RECORDED METRIC: Pre-emergence action rating, Panicum

1) O=C(C1=C(O)C2CCC(C2)C1=O)c1ccc(C(F)(F)F)nc1COC1COC1 (centres unmarked)
1
2) CCOCCOCc1nc(C(F)(F)F)ccc1C(=O)c1cnn(C)c1OS(C)(=O)=O
2
3) COCCOCc1nc(C(F)(F)F)ccc1C(=O)c1c(C)nn(C)c1O
3
4) COCCOCCOCc1nc(C(F)(F)F)ccc1C(=O)C1=C(O)C2CCC(C2)C1=O (centres unmarked)
1
5) COCCOCc1nc(C(F)(F)F)ccc1C(=O)C1=C(O)CCC2(CC2)C1=O
1
6) O=C(C1=C(O)C2CCC(C2)C1=O)c1ccc(C(F)(F)F)nc1COCCOCC(F)(F)F (centres unmarked)
1
7) CCCCCCCC(=O)OCc1nc(C(F)(F)F)ccc1C(=O)C1=C(O)C2CCC(C2)C1=O (centres unmarked)
1
8) COCCOCc1nc(C(F)(F)F)ccc1C(=O)c1cnn(C)c1OS(=O)(=O)c1ccc(C)cc1
2
9) COCCOCc1nc(C(F)(F)F)ccc1C(=O)C1=C(O)CCC(C)(C)C1=O
1
10) COCc1nc(C(F)(F)F)ccc1C(=O)c1c(C)nn(C)c1O
6
11) CS(=O)(=O)CCOCc1nc(C(F)(F)F)ccc1C(=O)C1=C(O)C2CCC(C2)C1=O (centres unmarked)
7
12) O=C(C1=C(O)C2CCC(C2)C1=O)c1ccc(C(F)(F)F)nc1COCC1COCO1 (centres unmarked)
1
13) COc1cc(OC)nc(SCc2nc(C(F)(F)F)ccc2C(=O)C2=C(O)C3CCC(C3)C2=O)n1 (centres unmarked)
4
14) O=C(C1=C(O)C2CCC(C2)C1=O)c1ccc(C(F)(F)F)nc1COCCCO (centres unmarked)
1
15) O=C(C1=C(O)C2CCC(C2)C1=O)c1ccc(C(F)(F)F)nc1COCC1CCCO1 (centres unmarked)
1
16) COCCOCc1nc(C(F)(F)F)ccc1C(=O)c1cnn(C)c1O
2
17) CC(=O)OCc1nc(C(F)(F)F)ccc1C(=O)C1=C(O)C2CCC(C2)C1=O (centres unmarked)
1
18) CCN(CC)CC.COCCOCc1nc(C(F)(F)F)ccc1C(=O)C1=C(O)C2CCC(C2)C1=O (centres unmarked) [A10-B52 (Et3NH+)]
1
19) COCc1nc(C(F)(F)F)ccc1C(=O)c1cnn(C)c1O
2
20) CCCOCCOCc1nc(C(F)(F)F)ccc1C(=O)C1=C(O)C2CCC(C2)C1=O (centres unmarked)
1
21) C#CCOCc1nc(C(F)(F)F)ccc1C(=O)C1=C(O)C2CCC(C2)C1=O (centres unmarked)
1
22) O=C(C1=C(O)C2CCC(C2)C1=O)c1ccc(C(F)(F)F)nc1COCc1ccccc1 (centres unmarked)
1
23) CCN(CC)CC.O=C(C1=C(O)C2CCC(C2)C1=O)c1ccc(C(F)(F)F)nc1COC1CCCO1 (centres unmarked) [A837-B52 (Et3NH+)]
1
24) CCOCCOCc1nc(C(F)(F)F)ccc1C(=O)C1=C(O)C2CCC(C2)C1=O (centres unmarked)
1
25) CCOCCOCc1nc(C(F)(F)F)ccc1C(=O)c1cnn(C)c1O
1
26) COCCOCc1nc(C(F)F)ccc1C(=O)C1=C(O)C2CCC(C2)C1=O (centres unmarked)
1
27) O=C(C1=C(O)C2CCC(C2)C1=O)c1ccc(C(F)(F)F)nc1COC1COCOC1 (centres unmarked)
1
28) CC(C)OCc1nc(C(F)(F)F)ccc1C(=O)c1cnn(C)c1O
1
29) C#CCCOCc1nc(C(F)(F)F)ccc1C(=O)C1=C(O)C2CCC(C2)C1=O (centres unmarked)
1
30) O=C(C1=C(O)C2CCC(C2)C1=O)c1ccc(C(F)(F)F)nc1COCC1CO1 (centres unmarked)
1
31) O=C(C1=C(O)C2CCC(C2)C1=O)c1ccc(C(F)(F)F)nc1COCC(F)(F)F (centres unmarked)
1
32) CC#CCOCc1nc(C(F)(F)F)ccc1C(=O)C1=C(O)C2CCC(C2)C1=O (centres unmarked)
1
33) O=C(C1=C(O)C2CCC(C2)C1=O)c1ccc(C(F)(F)F)nc1COCC1CCCCO1 (centres unmarked)
2
34) COCOCc1nc(C(F)(F)F)ccc1C(=O)C1=C(O)C2CCC(C2)C1=O (centres unmarked)
1
35) COCCOCc1nc(C(F)(F)F)ccc1C(=O)C1=C(O)C(C)(C)CC(C)C1=O (centres unmarked)
2
